Consider the following compounds and their measured solubility kinetic readings.
- Condition Notes: buffer; pH 7.4; 200.0 µM
Recorded Metric: solubility kinetic

>>> obs_value("Cn1c(-c2ccc(Cl)nc2)nc2ccccc21")
"> 36.6 µg/mL"
>>> obs_value("CCC(Cc1ccccc1)NC(=O)C1CC1 (centres undefined)")
"> 32.6 µg/mL"
>>> obs_value("Cc1ccc(C(=O)N/C(=C\\c2cccnc2)C(=O)N2CCCC2)cc1")
"> 50.3 µg/mL"
>>> obs_value("Cc1ccc(NC(=O)CCCC2CCCCC2)c(O)c1")
"< 0.6 µg/mL"
>>> obs_value("CC(C)C(=O)Nc1cc2c3c(c1)CCC(=O)N3CCC2")
"> 40.9 µg/mL"
>>> obs_value("O=C1CNC(=S)N1Cc1ccc(Cl)cc1")
"> 36.1 µg/mL"
>>> obs_value("CCCCCc1ccc(S(=O)(=O)Nc2cc(C)ccn2)cc1")
"< 0.3 µg/mL"
>>> obs_value("CCc1noc(C)c1C(=O)NCCc1ccc(Cl)cc1")
"> 43.9 µg/mL"
>>> obs_value("CCc1ccc(N2C(=O)C3C(C2=O)N2CCCN2C3c2ccccc2)cc1 (centres undefined)")
"> 54.2 µg/mL"
>>> obs_value("Cc1cccc(C(=O)Nc2ccc3c(c2)ncn3C)c1")
"> 39.8 µg/mL"
>>> obs_value("CN(C(=O)c1cccc(NC(=O)c2ccco2)c1)c1ccccc1")
"> 48.1 µg/mL"
>>> obs_value("CCOc1ccc(S(=O)(=O)NCc2cccnc2)cc1C(C)C")
"> 50.2 µg/mL"
>>> obs_value("Cc1ccc(CNc2cc(C(=O)O)ccc2C)s1")
"> 39.2 µg/mL"
>>> obs_value("CCc1c(C(=O)N2CCCN(C)CC2)csc1C")
"> 40 µg/mL"

---

Consider the following molecules and their measured solubility kinetic readings.
- Condition Notes: buffer; pH 7.4; 200.0 µM
Recorded Metric: solubility kinetic

>>> obs_value("NC(=S)Nc1c(Cl)cccc1Cl")
"> 33.2 µg/mL"
>>> obs_value("COc1cc(OC)cc(C(=O)NCC(=O)N2CCN(Cc3ccccc3)CC2)c1")
"> 59.6 µg/mL"
>>> obs_value("CCOc1ccc(NC(=O)CCN2CCN(C)CC2)cc1")
"> 43.7 µg/mL"
>>> obs_value("Cc1cc(/C=C2\\SC(=S)NC2=O)c(C)[nH]1")
"> 35.7 µg/mL"
>>> obs_value("O=C1CCCN1CCCNS(=O)(=O)c1ccc(F)cc1F")
"> 47.8 µg/mL"
>>> obs_value("O=C(NCc1ccccn1)Nc1ccc(F)c(Cl)c1")
"> 42 µg/mL"
>>> obs_value("COc1ccccc1N1CC(C(=O)NC2CCCCCC2)CC1=O (stereo unspecified)")
"> 49.6 µg/mL"
>>> obs_value("COc1ccc(-c2c(C#N)c(N)nc(Sc3ccc(Cl)cc3)c2C#N)cc1")
"< 0.2 µg/mL"
>>> obs_value("N/C(CC1CC1(Cl)Cl)=N\\OC(=O)c1ccccc1 (stereo unspecified)")
"> 43.1 µg/mL"
>>> obs_value("Cc1ccsc1C(=O)N1CC=C(c2ccccc2)CC1")
"> 42.5 µg/mL"
>>> obs_value("CCN1C(=O)CC(c2ccc(OC(C)C)cc2)C1=O (stereo unspecified)")
"> 39.2 µg/mL"

---

- Condition Notes: buffer; pH 7.4; 200.0 µM
Recorded Metric: solubility kinetic

>>> obs_value("Cc1c(Cl)cccc1NC(=O)CCN1C(=O)NC(C)(C)C1=O")
"> 48.6 µg/mL"
>>> obs_value("COc1ccc(CC(=O)NCc2ccccc2)cc1OC")
"> 42.8 µg/mL"
>>> obs_value("CC(=O)Nc1ccc(S(=O)(=O)NCCCc2ccccc2)cc1")
"> 49.9 µg/mL"
